- assayed.system: p38 MAP kinase (Homo sapiens)
- Sequence (Q16539 whole entry): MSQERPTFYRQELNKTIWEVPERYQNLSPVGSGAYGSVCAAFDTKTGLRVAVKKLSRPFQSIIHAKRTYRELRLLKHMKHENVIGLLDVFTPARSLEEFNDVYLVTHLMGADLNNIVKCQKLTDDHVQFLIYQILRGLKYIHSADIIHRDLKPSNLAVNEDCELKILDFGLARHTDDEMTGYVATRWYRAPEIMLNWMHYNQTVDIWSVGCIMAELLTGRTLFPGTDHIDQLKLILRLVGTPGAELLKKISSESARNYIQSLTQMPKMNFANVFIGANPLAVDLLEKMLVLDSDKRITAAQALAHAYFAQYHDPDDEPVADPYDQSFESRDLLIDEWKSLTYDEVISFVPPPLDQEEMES
reported.property: IC50 (µM)
Output spec: scalar in µM, unitless text.

Example entries begin here.
molecule=CCc1nc(-c2cccc(C)c2)c(-c2ccnc(N=S(=O)(C3CCCCC3)C3CCCCC3)c2)s1 assayed_system="p38 MAP kinase (Homo sapiens)" reported_property=IC50 result_number=1.2
molecule="CCc1nc(-c2ccccc2)c(-c2ccnc(N=S(=O)(c3ccccc3)C3CCCC3)c2)s1 (single isomer, unassigned; (-))" assayed_system="p38 MAP kinase (Homo sapiens)" reported_property=IC50 result_number=2.6
molecule="CCc1nc(-c2ccc(F)cc2)c(-c2ccnc(N=S(C)(=O)c3ccccc3)c2)s1 (stereo not shown) [Example 39]" assayed_system="p38 MAP kinase (Homo sapiens)" reported_property=IC50 result_number=4.6
molecule="O=S(=Nc1cc(-c2scnc2-c2cccc(F)c2)ccn1)(c1ccccc1)C1CCCC1 (stereo not shown)" assayed_system="p38 MAP kinase (Homo sapiens)" reported_property=IC50 result_number=8.2
molecule=CCCCS(=O)(CCCC)=Nc1cc(-c2sc(CC)nc2-c2cccc(C)c2)ccn1 assayed_system="p38 MAP kinase (Homo sapiens)" reported_property=IC50 result_number=1.9
molecule="CCc1nc(-c2cccc(C)c2)c(-c2ccnc(N=S(C)(=O)c3ccc(OC)cc3)c2)s1 (stereo not shown)" assayed_system="p38 MAP kinase (Homo sapiens)" reported_property=IC50 result_number=1.1

Which IC50 is reported with p38 MAP kinase (Homo sapiens) for this entry: CCc1nc(-c2cccc(C)c2)c(-c2ccnc(N=S(C)(=O)c3ccccc3)c2)s1 (stereo not shown) [Example 4] ? 1.12

// map CCc1nc(-c2ccc(F)cc2)c(-c2ccnc(N=S(=O)(c3ccccc3)C(C)C)c2)s1 (single isomer, unassigned; (+)) [Example 37] to recorded IC50 (system: p38 MAP kinase (Homo sapiens)) 5.93

Requested read-out IC50, target or system p38 MAP kinase (Homo sapiens), entry `CCc1nc(-c2ccccc2)c(-c2ccnc(N=S(=O)(c3ccccc3)c3ccccc3)c2)s1` 10

Query for p38 MAP kinase (Homo sapiens): what IC50 does the record show for CCc1nc(-c2ccc(F)cc2)c(-c2ccnc(N=S(C)(=O)c3ccc(F)cc3)c2)s1 (single isomer, unassigned; (+)) ? 6.6

So what IC50 did CCc1nc(-c2cccc3ccccc23)c(-c2ccnc(N=S(C)(=O)c3ccccc3)c2)s1 (stereo not shown) get with p38 MAP kinase (Homo sapiens)? 1.9
